PROCEDURE DETAILS: Solubility of meloxicam in PEG 200, PEG300 or PEG600
Format: physicochemical
RUN CONDITIONS: 25 °C, organic solvent or mixture, thermodynamic from solid; Cosolvent PEG200; read-out: Solubility (shaking at 25° C. for 24 h)
REPORTED ENDPOINT: solubility at 24 h (µg/mL)
Dear colleague, please return just the value in µg/mL, with no unit written.

get_value(item= Cc1cnc(NC(=O)C2=C(O)c3ccccc3S(=O)(=O)N2C)s1 , readout=solubility at 24 h) returns 3600

====

PROCEDURE DETAILS: Solubility of meloxicam in organic base or alkaline amino acid solutions (Comparative Example A4)
Format: physicochemical
RUN CONDITIONS: Tris solution, 25 °C, aqueous buffer, thermodynamic from solid, Tris 5 mg/mL; shaking at 25° C. for 24 h, n = 3
REPORTED ENDPOINT: solubility at 24 h (µg/mL)
Field: numeric (µg/mL). Do not append units.

So for Cc1cnc(NC(=O)C2=C(O)c3ccccc3S(=O)(=O)N2C)s1 [Meloxicam] , the logged solubility at 24 h turned out to be 5540

====

PROCEDURE DETAILS: Solubility of meloxicam in organic base or alkaline amino acid solutions (Comparative Example A4)
Assay type: physicochemical
RUN CONDITIONS: arginine solution, 25 °C, aqueous buffer, thermodynamic from solid, Arginine 20 mg/mL; shaking at 25° C. for 24 h, n = 3
REPORTED ENDPOINT: solubility at 24 h (mg/mL)
Write the value in mg/mL as a bare number.

Lookup result for Cc1cnc(NC(=O)C2=C(O)c3ccccc3S(=O)(=O)N2C)s1 [Meloxicam] ; measured solubility at 24 h: 11.6

====

PROCEDURE DETAILS: Solubility of meloxicam in organic base or alkaline amino acid solutions (Comparative Example A4)
Assay type: physicochemical
RUN CONDITIONS: arginine solution, 25 °C, aqueous buffer, thermodynamic from solid, Arginine 7 mg/mL; shaking at 25° C. for 24 h, n = 3
REPORTED ENDPOINT: solubility at 24 h (mg/mL)
Answer with a number only, understood to be in mg/mL.

Reported solubility at 24 h of Cc1cnc(NC(=O)C2=C(O)c3ccccc3S(=O)(=O)N2C)s1 : 11.2

====

PROCEDURE DETAILS: Solubility of meloxicam in organic base or alkaline amino acid solutions (Comparative Example A4)
Format: physicochemical
RUN CONDITIONS: arginine solution, 25 °C, aqueous buffer, thermodynamic from solid, Arginine 40 mg/mL; shaking at 25° C. for 24 h, n = 3
REPORTED ENDPOINT: solubility at 24 h (mg/mL)
I only need the number, in mg/mL, no unit after it.

Looking up Cc1cnc(NC(=O)C2=C(O)c3ccccc3S(=O)(=O)N2C)s1 , I see its solubility at 24 h listed as 14.2

====

PROCEDURE DETAILS: Solubility of meloxicam in organic base or alkaline amino acid solutions (Comparative Example A4)
Type: physicochemical
RUN CONDITIONS: Tris solution, 25 °C, aqueous buffer, thermodynamic from solid, Tris 20 mg/mL; shaking at 25° C. for 24 h, n = 3
REPORTED ENDPOINT: solubility at 24 h (mg/mL)
Write the answer as a number in mg/mL, unit excluded.

Recorded solubility at 24 h (compound Cc1cnc(NC(=O)C2=C(O)c3ccccc3S(=O)(=O)N2C)s1 ): 14.3

====

PROCEDURE DETAILS: Solubility of meloxicam in organic base or alkaline amino acid solutions (Comparative Example A4)
Format: physicochemical
RUN CONDITIONS: Tris solution, 25 °C, aqueous buffer, thermodynamic from solid, Tris 15 mg/mL; shaking at 25° C. for 24 h, n = 3
REPORTED ENDPOINT: solubility at 24 h (mg/mL)
Report only the number, with the unit mg/mL understood.

Lookup result for Cc1cnc(NC(=O)C2=C(O)c3ccccc3S(=O)(=O)N2C)s1 [Meloxicam] ; measured solubility at 24 h: 11.4

====

PROCEDURE DETAILS: Solubility of meloxicam in organic base or alkaline amino acid solutions (Comparative Example A4)
Type: physicochemical
RUN CONDITIONS: lysine solution, 25 °C, aqueous buffer, thermodynamic from solid, Lysine 19 mg/mL; shaking at 25° C. for 24 h, n = 3
REPORTED ENDPOINT: solubility at 24 h (mg/mL)
Express it in mg/mL; write the number only.

For Cc1cnc(NC(=O)C2=C(O)c3ccccc3S(=O)(=O)N2C)s1 the molecule record lists solubility at 24 h as 29.8

====

PROCEDURE DETAILS: Solubility of meloxicam in organic base or alkaline amino acid solutions (Comparative Example A4)
Assay type: physicochemical
RUN CONDITIONS: arginine solution, 25 °C, aqueous buffer, thermodynamic from solid, Arginine 30 mg/mL; shaking at 25° C. for 24 h, n = 3
REPORTED ENDPOINT: solubility at 24 h

Record summary for Cc1cnc(NC(=O)C2=C(O)c3ccccc3S(=O)(=O)N2C)s1 [Meloxicam] : reported solubility at 24 h = 12.8 mg/mL

====

PROCEDURE DETAILS: Solubility of meloxicam in organic base or alkaline amino acid solutions (Comparative Example A4)
Format: physicochemical
RUN CONDITIONS: high concentration organic base or basic amino acid solution, aqueous buffer, thermodynamic from solid, solubility of meloxicam in a high concentration organic base or basic amino acid, high concentration organic base or basic amino acid
REPORTED ENDPOINT: solubility

Entry under test: Cc1cnc(NC(=O)C2=C(O)c3ccccc3S(=O)(=O)N2C)s1 . Its solubility was ≥ 10000 µg/mL

====

PROCEDURE DETAILS: Solubility of meloxicam in PEG 200, PEG300 or PEG600
Type: physicochemical
RUN CONDITIONS: 25 °C, organic solvent or mixture, thermodynamic from solid; Cosolvent PEG300; read-out: Solubility (shaking at 25° C. for 24 h)
REPORTED ENDPOINT: solubility at 24 h (µg/mL)
Give your result in µg/mL as a bare value.

Sure, the documented solubility at 24 h for Cc1cnc(NC(=O)C2=C(O)c3ccccc3S(=O)(=O)N2C)s1 [Meloxicam] is 2810

====

PROCEDURE DETAILS: Solubility of meloxicam in organic base or alkaline amino acid solutions (Comparative Example A4)
Assay type: physicochemical
RUN CONDITIONS: meglumine solution, 25 °C, aqueous buffer, thermodynamic from solid, Meglumine 15 mg/mL; shaking at 25° C. for 24 h, n = 3
REPORTED ENDPOINT: solubility at 24 h (mg/mL)
Give a bare numeral; the unit mg/mL is implied.

# solubility at 24 h (molecule: Cc1cnc(NC(=O)C2=C(O)c3ccccc3S(=O)(=O)N2C)s1 ) is 24.6

====

PROCEDURE DETAILS: Solubility of meloxicam in organic base or alkaline amino acid solutions (Comparative Example A4)
Type: physicochemical
RUN CONDITIONS: Tris solution, 25 °C, aqueous buffer, thermodynamic from solid, Tris 30 mg/mL; shaking at 25° C. for 24 h, n = 3
REPORTED ENDPOINT: solubility at 24 h (mg/mL)
Report as a plain number; the unit mg/mL is understood.

According to the records, this molecule Cc1cnc(NC(=O)C2=C(O)c3ccccc3S(=O)(=O)N2C)s1 [Meloxicam] displays solubility at 24 h of 18.3

====

PROCEDURE DETAILS: Solubility of meloxicam in organic base or alkaline amino acid solutions (Comparative Example A4)
Type: physicochemical
RUN CONDITIONS: meglumine solution, 25 °C, aqueous buffer, thermodynamic from solid, Meglumine 10 mg/mL; shaking at 25° C. for 24 h, n = 3
REPORTED ENDPOINT: solubility at 24 h (mg/mL)
Expressed in mg/mL, but write only the number.

Record Cc1cnc(NC(=O)C2=C(O)c3ccccc3S(=O)(=O)N2C)s1 . Reported solubility at 24 h: 17.8

====

PROCEDURE DETAILS: Solubility of meloxicam in organic base or alkaline amino acid solutions (Comparative Example A4)
Assay type: physicochemical
RUN CONDITIONS: lysine solution, 25 °C, aqueous buffer, thermodynamic from solid, Lysine 24 mg/mL; shaking at 25° C. for 24 h, n = 3
REPORTED ENDPOINT: solubility at 24 h (mg/mL)
Your answer should be a plain number; it is taken to be in mg/mL.

// sample Cc1cnc(NC(=O)C2=C(O)c3ccccc3S(=O)(=O)N2C)s1 , its solubility at 24 h was 35.9

====

PROCEDURE DETAILS: Solubility of meloxicam in organic base or alkaline amino acid solutions (Comparative Example A4)
Assay type: physicochemical
RUN CONDITIONS: arginine solution, 25 °C, aqueous buffer, thermodynamic from solid, Arginine 14 mg/mL; shaking at 25° C. for 24 h, n = 3
REPORTED ENDPOINT: solubility at 24 h

# solubility at 24 h of Cc1cnc(NC(=O)C2=C(O)c3ccccc3S(=O)(=O)N2C)s1 [Meloxicam] = 11.6 mg/mL
